- assayed-target: UniProt P0C6X7
Rule: IC50 below 10 nM gives T, anything at or above gives F.

Consider the compound CC[C@@H](C)[C@H](NC(=O)C1(F)CC1)C(=O)N1C[C@H]2[C@@H]([C@H]1C(=O)NN(C[C@@H]1CCNC1=O)C(=O)[C@@H](F)Cl)C2(C)C [Example 121] . Is its IC50 strictly less than 10 nM?
F

Consider the compound CCC(CC)[C@H](NC(=O)C(F)(F)F)C(=O)N1C[C@H]2[C@@H]([C@H]1C(=O)NN(C[C@@H]1CCNC1=O)C(=O)[C@H](F)Cl)C2(C)C [Example 84] . Is its IC50 strictly less than 10 nM?
F

Consider the compound CC(C)(C)[C@H](Nc1ccccn1)C(=O)N1C[C@@H]2CCC[C@@H]2[C@H]1C(=O)NN(C[C@@H]1CCNC1=O)C(=O)[C@H](F)Cl [Example 184] . Is its IC50 strictly less than 10 nM?
F

Consider the compound CC[C@H](C)[C@H](NC(=O)C(C)(C)F)C(=O)N1C[C@@H]2CCC[C@@H]2[C@H]1C(=O)NN(C[C@@H]1CCNC1=O)C(=O)[C@H](F)Cl [Example 42] . Is its IC50 strictly less than 10 nM?
T

Consider the compound CC1(C)C[C@@H](C(=O)NN(C[C@@H]2CCNC2=O)C(=O)[C@H](F)Cl)N(C(=O)[C@@H](NC(=O)C(F)(F)F)C(C)(C)C)C1 [Example 8] . Is its IC50 strictly less than 10 nM?
F

----------
Record form. Attribute: pIC50. Fill in for each entry.
When answering, recall that pIC50 equals minus log10 of the concentration in mol/L, and write that number alone.

Considering CC[C@H](C)[C@H](NC(=O)C1(F)CC1)C(=O)N1C[C@@H]2CCC[C@@H]2[C@H]1C(=O)NN(C[C@@H]1CCCNC1=O)C(=O)[C@H](F)Cl [Example 170a] , its pIC50 with HCoV-229E 3CLpro (Human coronavirus 229E, UniProt P0C6X1) was recorded as 6.97

Considering CC(C)(C)[C@H](NC(=O)C1(F)CCC1)C(=O)N1C[C@@H]2CCC[C@@H]2[C@H]1C(=O)NN(C[C@@H]1CCNC1=O)C(=O)[C@H](F)Cl , its pIC50 with HCoV-229E 3CLpro (Human coronavirus 229E, UniProt P0C6X1) was recorded as 7.13

Considering CC[C@H](C)[C@H](NC(=O)[C@@H](F)Cl)C(=O)N1C[C@H]2[C@@H]([C@H]1C(=O)NN(C[C@H]1CCCNC1=O)C(=O)[C@@H](F)Cl)C2(C)C , its pIC50 with HCoV-229E 3CLpro (Human coronavirus 229E, UniProt P0C6X1) was recorded as 7.54

----------
The following compounds have recorded pIC50 on HCoV-229E 3CLpro (Human coronavirus 229E, UniProt P0C6X1).
Sequence (P0C6X1 2966-3267): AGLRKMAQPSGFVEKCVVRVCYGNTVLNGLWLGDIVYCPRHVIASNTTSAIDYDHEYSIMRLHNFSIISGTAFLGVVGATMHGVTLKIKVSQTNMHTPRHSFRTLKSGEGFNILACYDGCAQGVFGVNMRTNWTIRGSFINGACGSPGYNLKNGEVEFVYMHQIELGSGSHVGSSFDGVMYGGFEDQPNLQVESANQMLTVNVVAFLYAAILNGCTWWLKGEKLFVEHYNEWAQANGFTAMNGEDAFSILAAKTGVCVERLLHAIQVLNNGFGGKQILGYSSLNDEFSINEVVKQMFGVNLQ
When answering, recall that pIC50 equals minus log10 of the concentration in mol/L, and write that number alone.

Lab book: pIC50 of CCC(C)(C)[C@H](NC(=O)C1CC1)C(=O)N1C[C@@H]2CCC[C@@H]2[C@H]1C(=O)NN(C[C@@H]1CCCNC1=O)C(=O)[C@H](F)Cl [Example 167a] noted as 7.28

Lab book: pIC50 of CC[C@H](C)[C@H](NC(=O)C1(F)CC1)C(=O)N1C[C@H](C(F)(F)F)C[C@H]1C(=O)NN(C[C@@H]1CCNC1=O)C(=O)[C@@H](F)Cl noted as 7.00

Lab book: pIC50 of CC[C@H](C)[C@H](NC(=O)C1(F)CC1)C(=O)N1C[C@@H]2CCC[C@@H]2[C@H]1C(=O)NN(C[C@@H]1CCNC1=O)C(=O)[C@H](F)Cl noted as 7.41

Lab book: pIC50 of CC1(C)[C@@H]2[C@@H](C(=O)NN(C[C@@H]3CCNC3=O)C(=O)[C@H](F)Cl)N(C(=O)c3cc(C(F)(F)F)cc(C(F)(F)F)c3)C[C@@H]21 noted as 6.86

Lab book: pIC50 of CC[C@H](C)[C@H](NC(=O)C(F)(F)F)C(=O)N1C[C@H]2[C@@H]([C@H]1C(=O)NN(C[C@@H]1CCCNC1=O)C(=O)[C@H](F)Cl)C2(C)C (single isomer, unassigned) [Example 165a] noted as 7.42

Lab book: pIC50 of CCC(C)(C)[C@H](NC(=O)C1(F)CC1)C(=O)N1C[C@@H]2CCC[C@@H]2[C@H]1C(=O)NN(C[C@@H]1CCNC1=O)C(=O)[C@H](F)Cl noted as 7.35

Lab book: pIC50 of CC[C@H](C)[C@H](NC(=O)C(C)F)C(=O)N1C[C@H]2[C@@H]([C@H]1C(=O)NN(C[C@@H]1CCNC1=O)C(=O)[C@H](F)Cl)C2(C)C (mixture of isomers) noted as 7.74

Lab book: pIC50 of CC1(C)[C@@H]2[C@@H](C(=O)NN(C[C@@H]3CCNC3=O)C(=O)[C@H](F)Cl)N(C(=O)[C@H](Cc3ccncc3)NC(=O)C(F)(F)F)C[C@@H]21 noted as 7.55

Lab book: pIC50 of CC[C@@H](C)[C@H](NC(=O)C(F)F)C(=O)N1C[C@H]2[C@@H]([C@H]1C(=O)NN(C[C@@H]1CCNC1=O)C(=O)[C@H](F)Cl)C2(C)C noted as 7.66

Lab book: pIC50 of CC[C@H](C)[C@H](NC(=O)C(C)(C)C)C(=O)N1C[C@@H]2CCC[C@@H]2[C@H]1C(=O)NN(C[C@@H]1CCNC1=O)C(=O)[C@H](F)Cl noted as 7.64

----------
- assayed-target: HCoV-229E 3CLpro (Human coronavirus 229E)
observable: pIC50
When answering, recall that pIC50 equals minus log10 of the concentration in mol/L, and write that number alone.

Lab book: pIC50 of CCC(C)(C)[C@H](NC(=O)C1CC1)C(=O)N1C[C@H]2[C@@H]([C@H]1C(=O)NN(C[C@@H]1CCNC1=O)C(=O)[C@H](F)Cl)C2(C)C noted as 7.51

Lab book: pIC50 of CC[C@H](C)[C@H](NC(=O)[C@H](F)Cl)C(=O)N1C[C@H]2[C@@H]([C@H]1C(=O)NN(C[C@@H]1CCNC1=O)C(=O)[C@H](F)Cl)C2(C)C noted as 7.40

Lab book: pIC50 of CCC(CC)[C@H](NC(=O)C1CC1)C(=O)N1C[C@@H]2CCC[C@@H]2[C@H]1C(=O)NN(C[C@@H]1CCCNC1=O)C(=O)[C@H](F)Cl [Example 171a] noted as 7.03

Lab book: pIC50 of CCC(C)(C)[C@H](NC(=O)C1CC1)C(=O)N1CC(C)(C)C[C@H]1C(=O)NN(C[C@@H]1CCCNC1=O)C(=O)[C@H](F)Cl [Example 168a] noted as 6.98

Lab book: pIC50 of CC(C)(C)[C@H](NC(=O)C(F)(F)F)C(=O)N1C[C@H]2[C@@H]([C@H]1C(=O)NN(C[C@@H]1CCCNC1=O)C(=O)[C@H](F)Cl)C2(C)C (single isomer, unassigned) [Example 163b] noted as 6.98

----------
The following compounds have recorded IC50 on SARS-CoV 3CLpro (Severe acute respiratory syndrome coronavirus).
State just the number; it will be interpreted in nM.

Lab book: IC50 of CC[C@H](C)[C@H](NC(=O)CC(F)(F)F)C(=O)N1C[C@@H]2CCC[C@@H]2[C@H]1C(=O)NN(C[C@@H]1CCNC1=O)C(=O)[C@H](F)Cl noted as 10

Lab book: IC50 of CC1([C@H](NC(=O)C(F)(F)F)C(=O)N2C[C@H]3[C@@H]([C@H]2C(=O)NN(C[C@@H]2CCNC2=O)C(=O)[C@H](F)Cl)C3(C)C)CC1 noted as 14

Lab book: IC50 of CC(C)(C)[C@H](NC(=O)C1(F)CCC1)C(=O)N1C[C@@H]2CCC[C@@H]2[C@H]1C(=O)NN(C[C@@H]1CCNC1=O)C(=O)[C@H](F)Cl noted as 13

Lab book: IC50 of CC[C@@H](C)[C@H](NC(=O)[C@H](C)F)C(=O)N1C[C@H]2[C@@H]([C@H]1C(=O)NN(C[C@@H]1CCNC1=O)C(=O)[C@@H](F)Cl)C2(C)C noted as 36

Lab book: IC50 of CC(C)(C)[C@H](NC(=O)[C@@H]1CC1(F)F)C(=O)N1C[C@@H]2CCC[C@@H]2[C@H]1C(=O)NN(C[C@@H]1CCNC1=O)C(=O)[C@@H](F)Cl noted as 13

Lab book: IC50 of CC(C)(C)[C@H](NC(=O)C(F)F)C(=O)N1C[C@H]2[C@@H]([C@H]1C(=O)NN(C[C@@H]1CCNC1=O)C(=O)[C@H](F)Cl)C2(C)C noted as 18

Lab book: IC50 of CCC(CC)[C@H](NC(=O)C1(F)CC1)C(=O)N1C[C@H]2[C@@H]([C@H]1C(=O)NN(C[C@@H]1CCNC1=O)C(=O)[C@H](F)Cl)C2(C)C noted as 14

Lab book: IC50 of C[C@@H]1C[C@@H](C(=O)NN(C[C@@H]2CCNC2=O)C(=O)[C@H](F)Cl)N(C(=O)[C@@H](NC(=O)C(F)(F)F)C(C)(C)C)C1 noted as 17

Lab book: IC50 of CCC(C)(C)[C@H](NC(=O)[C@@H]1CC1(F)F)C(=O)N1C[C@@H]2CCC[C@@H]2[C@H]1C(=O)NN(C[C@@H]1CCNC1=O)C(=O)[C@@H](F)Cl noted as 20

Lab book: IC50 of CC(C)(C)[C@H](NC(=O)[C@@H]1CC1(F)F)C(=O)N1C[C@@H]2CCC[C@@H]2[C@H]1C(=O)NN(C[C@@H]1CCCNC1=O)C(=O)[C@@H](F)Cl noted as 13
